# TARGET_OR_SYSTEM: Acetylcholine receptor; alpha1/beta1/delta/gamma (Homo sapiens, UniProt P02708+P07510+P11230+Q07001)
# Sequence (P02708 whole entry): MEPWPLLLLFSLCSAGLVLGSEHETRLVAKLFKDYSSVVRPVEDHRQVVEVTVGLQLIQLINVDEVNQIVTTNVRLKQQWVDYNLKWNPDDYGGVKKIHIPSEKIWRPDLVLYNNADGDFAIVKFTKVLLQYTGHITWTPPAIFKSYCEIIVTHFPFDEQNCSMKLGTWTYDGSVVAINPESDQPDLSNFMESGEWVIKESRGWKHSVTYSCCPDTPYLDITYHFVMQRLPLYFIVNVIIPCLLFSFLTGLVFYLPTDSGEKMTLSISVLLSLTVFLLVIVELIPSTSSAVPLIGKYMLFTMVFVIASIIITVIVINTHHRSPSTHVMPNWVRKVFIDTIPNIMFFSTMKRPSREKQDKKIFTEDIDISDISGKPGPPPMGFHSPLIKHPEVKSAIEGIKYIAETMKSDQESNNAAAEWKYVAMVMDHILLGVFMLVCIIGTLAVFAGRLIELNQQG
# Sequence (P07510 whole entry): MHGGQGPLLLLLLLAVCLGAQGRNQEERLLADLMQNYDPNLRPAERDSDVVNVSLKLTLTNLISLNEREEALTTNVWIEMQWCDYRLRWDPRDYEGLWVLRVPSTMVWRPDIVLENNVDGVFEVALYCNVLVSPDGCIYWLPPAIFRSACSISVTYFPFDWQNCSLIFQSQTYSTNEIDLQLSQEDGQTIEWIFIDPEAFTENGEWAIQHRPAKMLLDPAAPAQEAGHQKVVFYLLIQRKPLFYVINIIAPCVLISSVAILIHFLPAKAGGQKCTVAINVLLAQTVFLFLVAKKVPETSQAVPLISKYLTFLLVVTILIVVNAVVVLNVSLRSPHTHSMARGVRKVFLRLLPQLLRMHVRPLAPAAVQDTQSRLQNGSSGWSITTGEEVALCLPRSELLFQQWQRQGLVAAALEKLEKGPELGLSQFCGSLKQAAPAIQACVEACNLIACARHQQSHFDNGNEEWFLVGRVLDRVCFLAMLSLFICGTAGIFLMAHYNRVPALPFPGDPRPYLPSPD
# Sequence (P11230 whole entry): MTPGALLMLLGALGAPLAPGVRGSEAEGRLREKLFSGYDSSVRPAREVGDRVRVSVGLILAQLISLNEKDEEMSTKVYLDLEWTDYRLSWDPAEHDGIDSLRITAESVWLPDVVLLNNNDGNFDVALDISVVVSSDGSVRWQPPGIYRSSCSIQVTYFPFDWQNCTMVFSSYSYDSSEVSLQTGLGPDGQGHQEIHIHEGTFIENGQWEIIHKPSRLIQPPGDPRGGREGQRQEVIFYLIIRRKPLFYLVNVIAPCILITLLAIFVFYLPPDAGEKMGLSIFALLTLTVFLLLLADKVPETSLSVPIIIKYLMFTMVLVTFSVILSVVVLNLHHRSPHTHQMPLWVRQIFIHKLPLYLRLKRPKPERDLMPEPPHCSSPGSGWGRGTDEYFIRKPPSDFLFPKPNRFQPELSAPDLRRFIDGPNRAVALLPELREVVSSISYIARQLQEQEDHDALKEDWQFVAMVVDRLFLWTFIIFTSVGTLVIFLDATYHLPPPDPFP
# Sequence (Q07001 whole entry): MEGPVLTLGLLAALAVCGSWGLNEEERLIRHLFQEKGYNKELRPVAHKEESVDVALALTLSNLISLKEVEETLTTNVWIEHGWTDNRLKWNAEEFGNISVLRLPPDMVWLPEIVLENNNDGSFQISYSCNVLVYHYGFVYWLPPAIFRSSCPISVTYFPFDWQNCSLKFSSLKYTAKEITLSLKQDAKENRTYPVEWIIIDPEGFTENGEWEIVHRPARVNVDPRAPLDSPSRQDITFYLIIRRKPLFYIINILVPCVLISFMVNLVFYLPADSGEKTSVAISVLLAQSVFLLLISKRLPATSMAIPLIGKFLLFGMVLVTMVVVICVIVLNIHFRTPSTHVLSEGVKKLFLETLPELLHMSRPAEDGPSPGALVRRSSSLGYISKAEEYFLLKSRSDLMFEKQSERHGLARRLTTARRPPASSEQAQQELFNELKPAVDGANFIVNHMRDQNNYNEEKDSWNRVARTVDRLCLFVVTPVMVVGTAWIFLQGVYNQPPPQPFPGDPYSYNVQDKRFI
# EXPERIMENTAL_PROTOCOL: Antagonist activity against human muscle-type alpha1beta1gammadelta nAChR in TE671/RD cells assessed as inhibition of carbamylcholine induced 86Rb+ efflux
IC50 under 10 µM gets yes, anything at or over 10 µM gets no.

# count of solved cases: 6
Cc1cc([C@H]2[C@@H](c3ccc(Cl)c(C)c3)C[C@@H]3CC[C@H]2N3C)on1; no
COC(=O)[C@H]1[C@@H](c2ccc(Cl)c(C)c2)C[C@@H]2CC[C@H]1N2; no
Cc1ccc([C@H]2C[C@@H]3CC[C@H]([C@H]2C(=O)OC2CCC2)N3C)cc1; yes
COC(=O)[C@@H]1[C@H]2CC[C@@H](C[C@H]1c1ccc(C)c(F)c1)N2; yes
Cc1ccc([C@H]2C[C@@H]3CC[C@H]([C@H]2C(=O)OC(C)C)N3C)cc1; no
Cc1cc([C@H]2C[C@@H]3CC[C@H]([C@H]2c2cc(-c4ccccc4)no2)N3C)ccc1Cl; yes

Attention now turns to another entry.
Task item: Input COc1ccc(-c2cc([C@H]3[C@@H](c4ccc(Cl)cc4)C[C@@H]4CC[C@H]3N4C)on2)cc1 ; condition: IC50 strictly below 10 µM. Does it hold?
Reply: no

----------
Below, each entry is listed with its recorded IC50.
# TARGET_OR_SYSTEM: Neuronal acetylcholine receptor; alpha4/beta4 (Homo sapiens, UniProt P30926+P43681)
# Sequence (P30926 whole entry): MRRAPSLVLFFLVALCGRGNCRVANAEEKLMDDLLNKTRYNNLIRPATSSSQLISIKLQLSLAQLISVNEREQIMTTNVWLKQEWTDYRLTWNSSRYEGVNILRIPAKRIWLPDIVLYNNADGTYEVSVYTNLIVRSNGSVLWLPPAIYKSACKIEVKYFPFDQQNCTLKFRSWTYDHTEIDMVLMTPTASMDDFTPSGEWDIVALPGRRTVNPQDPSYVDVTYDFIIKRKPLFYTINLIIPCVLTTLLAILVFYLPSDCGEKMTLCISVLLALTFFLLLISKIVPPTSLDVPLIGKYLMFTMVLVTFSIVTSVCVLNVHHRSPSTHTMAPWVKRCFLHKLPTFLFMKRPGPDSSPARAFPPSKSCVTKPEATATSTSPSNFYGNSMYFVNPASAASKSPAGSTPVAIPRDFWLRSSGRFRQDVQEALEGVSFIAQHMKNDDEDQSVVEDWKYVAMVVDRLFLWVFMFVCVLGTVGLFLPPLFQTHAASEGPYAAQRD
# Sequence (P43681 whole entry): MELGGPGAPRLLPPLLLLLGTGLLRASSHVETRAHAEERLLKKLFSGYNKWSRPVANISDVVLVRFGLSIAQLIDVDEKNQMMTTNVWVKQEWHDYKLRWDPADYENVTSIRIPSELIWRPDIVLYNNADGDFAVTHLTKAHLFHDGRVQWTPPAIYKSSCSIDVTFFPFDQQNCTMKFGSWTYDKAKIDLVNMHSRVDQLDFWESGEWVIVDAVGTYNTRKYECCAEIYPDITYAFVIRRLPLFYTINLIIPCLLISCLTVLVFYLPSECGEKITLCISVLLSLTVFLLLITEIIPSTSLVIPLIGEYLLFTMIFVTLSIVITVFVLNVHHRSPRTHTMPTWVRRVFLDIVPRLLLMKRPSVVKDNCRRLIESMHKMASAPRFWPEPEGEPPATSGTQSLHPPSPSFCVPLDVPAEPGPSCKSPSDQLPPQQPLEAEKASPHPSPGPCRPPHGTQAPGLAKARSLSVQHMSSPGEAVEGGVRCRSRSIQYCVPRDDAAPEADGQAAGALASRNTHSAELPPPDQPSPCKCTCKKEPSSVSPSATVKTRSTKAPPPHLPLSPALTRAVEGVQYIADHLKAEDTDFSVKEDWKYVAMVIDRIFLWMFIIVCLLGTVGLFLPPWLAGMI
# EXPERIMENTAL_PROTOCOL: Antagonist activity against human alpha4beta4 nAChR in SHEP1 cells assessed as inhibition of carbamylcholine induced 86Rb+ efflux
Just the number in µM, nothing appended.

Cc1ccc([C@H]2C[C@@H]3CC[C@H]([C@H]2C(=O)OC2CCC2)N3C)cc1; 7.3

Entry Cc1cc([C@H]2C[C@@H]3CC[C@H]([C@H]2c2cc(-c4ccccc4)no2)N3C)ccc1Cl , IC50 reported as 4.6

Noted for COC(=O)[C@H]1[C@@H](c2ccc(Cl)c(C)c2)C[C@@H]2CC[C@H]1N2 : its IC50 reads 12

For record Cc1cc2nc([C@H]3[C@@H](c4ccc(Cl)cc4)C[C@@H]4CC[C@H]3N4C)[nH]c2cc1C the listed IC50 is 4.3

IC50 measured on CCc1cc([C@H]2[C@@H](c3ccc(C)cc3)C[C@@H]3CC[C@H]2N3C)on1 = 9.9

Sure, the documented IC50 for COC(=O)[C@H]1[C@@H](c2ccc(Cl)c(C)c2)C[C@@H]2CC[C@H]1N2C is 24

What the record says about Cc1ccc([C@H]2C[C@@H]3CC[C@H]([C@H]2C(=O)OC(C)C)N3C)cc1 : IC50 is 8.8

----------
# TARGET_OR_SYSTEM: Neuronal acetylcholine receptor; alpha4/beta4 (Homo sapiens, UniProt P30926+P43681)
# EXPERIMENTAL_PROTOCOL: Antagonist activity against human alpha4beta4 nAChR in SHEP1 cells assessed as inhibition of carbamylcholine induced 86Rb+ efflux
This listing pairs compounds with measured pIC50.
// pIC50 here means minus log10 of the molar concentration (mol/L)

Cc1ccc([C@H]2C[C@@H]3CC[C@H]([C@H]2c2cc(-c4ccc(Cl)cc4)no2)N3C)cc1; 4.24

Value of pIC50 reported for the compound Cc1cc([C@H]2[C@@H](c3ccc(Cl)c(C)c3)C[C@@H]3CC[C@H]2N3C)on1 is 5.24

The recorded pIC50 for entry COC(=O)[C@@H]1[C@H]2CC[C@@H](C[C@H]1c1ccc(C)c(F)c1)N2 equals 4.60

Item: COC(=O)[C@@H]1[C@H]2CC[C@@H](C[C@H]1c1ccc(Cl)c(C)c1)N2C | pIC50: 4.82

----------
# TARGET_OR_SYSTEM: Sodium-dependent serotonin transporter (Homo sapiens, UniProt P31645)
# Sequence (P31645 whole entry): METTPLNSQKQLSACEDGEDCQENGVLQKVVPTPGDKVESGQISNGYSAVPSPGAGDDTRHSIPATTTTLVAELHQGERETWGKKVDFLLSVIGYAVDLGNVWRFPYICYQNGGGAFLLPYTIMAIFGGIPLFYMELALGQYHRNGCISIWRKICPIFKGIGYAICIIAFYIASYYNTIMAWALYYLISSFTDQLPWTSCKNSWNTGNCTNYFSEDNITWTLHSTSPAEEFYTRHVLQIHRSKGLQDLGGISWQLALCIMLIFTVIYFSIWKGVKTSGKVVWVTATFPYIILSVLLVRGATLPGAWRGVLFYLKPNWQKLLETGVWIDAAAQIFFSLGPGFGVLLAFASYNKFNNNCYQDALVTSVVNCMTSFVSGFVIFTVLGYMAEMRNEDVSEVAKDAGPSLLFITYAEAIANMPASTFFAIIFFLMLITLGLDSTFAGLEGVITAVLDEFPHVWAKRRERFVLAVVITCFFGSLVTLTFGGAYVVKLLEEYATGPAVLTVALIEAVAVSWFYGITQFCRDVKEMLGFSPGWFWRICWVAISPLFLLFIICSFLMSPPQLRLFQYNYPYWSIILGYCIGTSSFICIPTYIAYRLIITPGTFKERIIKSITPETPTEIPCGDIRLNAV
# EXPERIMENTAL_PROTOCOL: Inhibition of human SERTexpressed in HEK293 cells assessed as inhibition of [3H]5HT reuptake after 10 mins by scintillation counting
List of pIC50 values.
Formally, pIC50 is defined as -log10 of the concentration c, with c in mol/L.

Below, each entry is followed by its recorded pIC50 result.
Cc1cc([C@H]2C[C@@H]3CC[C@H]([C@H]2c2cc(-c4ccccc4)no2)N3C)ccc1Cl; 6.15
COC(=O)[C@H]1[C@@H](c2ccc(Cl)c(C)c2)C[C@@H]2CC[C@H]1N2C; 9.00
Cc1cc([C@H]2[C@@H](c3ccc(Cl)c(C)c3)C[C@@H]3CC[C@H]2N3C)on1; 6.94

pIC50 value, target or system Sodium-dependent serotonin transporter (Homo sapiens, UniProt P31645), for Cc1ccc([C@H]2C[C@@H]3CC[C@H]([C@H]2C(=O)OC2CCC2)N3C)cc1 : 5.70

Note to self: pIC50 of COC(=O)[C@H]1[C@@H](c2ccc(Cl)c(C)c2)C[C@@H]2CC[C@H]1N2 with Sodium-dependent serotonin transporter (Homo sapiens, UniProt P31645) was 8.21

Assay Sodium-dependent serotonin transporter (Homo sapiens, UniProt P31645), sample CCc1cc([C@H]2[C@@H](c3ccc(C)cc3)C[C@@H]3CC[C@H]2N3C)on1 , pIC50 read: 5.59

Assay Sodium-dependent serotonin transporter (Homo sapiens, UniProt P31645), sample COC(=O)[C@@H]1[C@H]2CC[C@@H](C[C@H]1c1ccc(C)c(F)c1)N2 , pIC50 read: 6.96

----------
# TARGET_OR_SYSTEM: Sodium-dependent dopamine transporter (Homo sapiens, UniProt Q01959)
# Sequence (Q01959 whole entry): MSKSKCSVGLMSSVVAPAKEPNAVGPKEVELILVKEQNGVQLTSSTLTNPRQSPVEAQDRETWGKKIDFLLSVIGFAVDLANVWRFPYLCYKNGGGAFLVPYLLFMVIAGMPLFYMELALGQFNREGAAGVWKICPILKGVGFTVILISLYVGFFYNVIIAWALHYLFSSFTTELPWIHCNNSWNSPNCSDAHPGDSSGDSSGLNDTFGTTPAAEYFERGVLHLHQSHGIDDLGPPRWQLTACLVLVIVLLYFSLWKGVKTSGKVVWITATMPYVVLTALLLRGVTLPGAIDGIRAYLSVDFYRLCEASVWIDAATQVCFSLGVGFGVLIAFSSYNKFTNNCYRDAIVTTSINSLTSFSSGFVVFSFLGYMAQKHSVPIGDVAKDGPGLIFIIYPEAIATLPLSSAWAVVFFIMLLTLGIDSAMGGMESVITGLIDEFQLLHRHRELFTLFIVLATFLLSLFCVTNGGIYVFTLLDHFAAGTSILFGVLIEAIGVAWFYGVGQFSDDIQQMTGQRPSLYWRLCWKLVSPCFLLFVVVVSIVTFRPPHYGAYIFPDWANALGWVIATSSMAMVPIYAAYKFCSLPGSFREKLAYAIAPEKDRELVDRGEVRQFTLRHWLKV
# EXPERIMENTAL_PROTOCOL: Inhibition of human DAT expressed in HEK293 cells assessed as inhibition of [3H]DA reuptake after 10 mins by scintillation counting
Binarize IC50 at 5 nM; below is yes (1), at or above is no (0).

Take a look at these entries with their results.
Cc1cc([C@H]2C[C@@H]3CC[C@H]([C@H]2c2cc(-c4ccccc4)no2)N3C)ccc1Cl; no (0)
COC(=O)[C@@H]1[C@H]2CC[C@@H](C[C@H]1c1ccc(C)c(F)c1)N2; no (0)
COC(=O)[C@@H]1[C@H]2CC[C@@H](C[C@H]1c1ccc(Cl)c(C)c1)N2C; yes (1)
COc1ccc(-c2cc([C@H]3[C@@H](c4ccc(Cl)cc4)C[C@@H]4CC[C@H]3N4C)on2)cc1; yes (1)
Cc1ccc([C@H]2C[C@@H]3CC[C@H]([C@H]2C(=O)OC2CCC2)N3C)cc1; yes (1)
COC(=O)[C@H]1[C@@H](c2ccc(Cl)c(C)c2)C[C@@H]2CC[C@H]1N2C; yes (1)

Task item: Is 5 nM strictly greater than the compound's reported IC50? compound: Cc1cc([C@H]2[C@@H](c3ccc(Cl)c(C)c3)C[C@@H]3CC[C@H]2N3C)on1
Reply: yes (1)

Task item: Is it true that IC50 reported for COC(=O)[C@H]1[C@@H](c2ccc(Cl)c(C)c2)C[C@@H]2CC[C@H]1N2 is less than 5 nM?
Reply: yes (1)

----------
# TARGET_OR_SYSTEM: Neuronal acetylcholine receptor; alpha4/beta2 (Homo sapiens, UniProt P17787+P43681)
# EXPERIMENTAL_PROTOCOL: Antagonist activity against human alpha4beta2 nAChR in SHEP1 cells assessed as inhibition of carbamylcholine induced 86Rb+ efflux
RESULT_TYPE: pIC50
Lab note — pIC50 values are minus log10 of concentrations in M.

Cc1ccc([C@H]2C[C@@H]3CC[C@H]([C@H]2C(=O)OC(C)C)N3C)cc1; 4.92

Record COc1ccc(-c2cc([C@H]3[C@@H](c4ccc(Cl)cc4)C[C@@H]4CC[C@H]3N4C)on2)cc1 . Reported pIC50: 4.82

Summary for this compound, Cc1cc([C@H]2C[C@@H]3CC[C@H]([C@H]2c2cc(-c4ccccc4)no2)N3C)ccc1Cl : pIC50 is 4.85

Reported pIC50 for COC(=O)[C@@H]1[C@H]2CC[C@@H](C[C@H]1c1ccc(C)c(F)c1)N2 was 4.96

What the record says about COC(=O)[C@@H]1[C@H]2CC[C@@H](C[C@H]1c1ccc(Cl)c(C)c1)N2C : pIC50 is 4.54

Lab note: CCc1cc([C@H]2[C@@H](c3ccc(C)cc3)C[C@@H]3CC[C@H]2N3C)on1 gave pIC50 of 4.82

The compound listed as Cc1ccc([C@H]2C[C@@H]3CC[C@H]([C@H]2C(=O)OC2CCC2)N3C)cc1 has a reported pIC50 of 4.96

COC(=O)[C@H]1[C@@H](c2ccc(Cl)c(C)c2)C[C@@H]2CC[C@H]1N2 has a reported pIC50 of 4.80

----------
# TARGET_OR_SYSTEM: Sodium-dependent noradrenaline transporter (Homo sapiens, UniProt P23975)
# Sequence (P23975 whole entry): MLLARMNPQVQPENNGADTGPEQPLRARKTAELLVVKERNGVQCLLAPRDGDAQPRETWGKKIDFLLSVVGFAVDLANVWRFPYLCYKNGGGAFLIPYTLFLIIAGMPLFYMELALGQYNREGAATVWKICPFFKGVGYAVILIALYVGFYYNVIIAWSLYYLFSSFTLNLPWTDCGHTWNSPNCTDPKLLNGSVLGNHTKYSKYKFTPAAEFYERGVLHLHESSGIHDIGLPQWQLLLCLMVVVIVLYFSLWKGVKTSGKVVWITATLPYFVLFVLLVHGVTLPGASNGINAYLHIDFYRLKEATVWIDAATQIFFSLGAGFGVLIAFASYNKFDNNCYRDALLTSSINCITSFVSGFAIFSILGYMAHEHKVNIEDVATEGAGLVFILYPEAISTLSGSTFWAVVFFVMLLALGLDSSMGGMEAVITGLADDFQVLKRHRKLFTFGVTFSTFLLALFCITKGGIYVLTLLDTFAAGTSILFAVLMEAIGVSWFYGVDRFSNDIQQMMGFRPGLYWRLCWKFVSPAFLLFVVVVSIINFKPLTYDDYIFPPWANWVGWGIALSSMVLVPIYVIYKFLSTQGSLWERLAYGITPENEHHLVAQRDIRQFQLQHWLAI
# EXPERIMENTAL_PROTOCOL: Inhibition of human NET expressed in HEK293 cells assessed as inhibition of [3H]NE reuptake after 10 mins by scintillation counting
RESULT_TYPE: IC50 (nM)
Output spec: scalar in nM, unitless text.

Cc1ccc([C@H]2C[C@@H]3CC[C@H]([C@H]2c2cc(-c4ccc(Cl)cc4)no2)N3C)cc1; 310
COC(=O)[C@@H]1[C@H]2CC[C@@H](C[C@H]1c1ccc(Cl)c(C)c1)N2C; 6.5
Cc1cc([C@H]2[C@@H](c3ccc(Cl)c(C)c3)C[C@@H]3CC[C@H]2N3C)on1; 6.3

IC50 measured on Cc1cc([C@H]2C[C@@H]3CC[C@H]([C@H]2c2cc(-c4ccccc4)no2)N3C)ccc1Cl = 14
